# assay_overview: Microsomal stability in rat liver microsomes assessed as hepatic clearance
# Type: ADME, Microsome
measure: CLhep predicted (mL/min/kg)
The reply should be a number in mL/min/kg, with the unit left off.

Query: Consider the compound shown here: CC(C)[C@]12O[C@H]1[C@@H]1O[C@]13[C@]1(O[C@H]1C[C@H]1C4=C(CC[C@@]13C)C(=O)OC4)[C@@H]2OC(=O)COC(=O)CN1CCOCC1.Cl What is its recorded CLhep predicted?
Result: 65.6

====

# assay_overview: Microsomal stability in rat liver microsomes assessed as half life
# Assay type: ADME, Microsome
measure: half-life (min)
Give just the numeric value; min need not be written.

Query: Which half-life is listed for CC(C)[C@]12O[C@H]1[C@@H]1O[C@]13[C@]1(O[C@H]1C[C@H]1C4=C(CC[C@@]13C)C(=O)OC4)[C@@H]2OC(=O)COC(=O)CN1CCOCC1.Cl ?
Result: 8.64

====

# assay_overview: Aqueous solubility of compound at 1 to 10 mg/ml by HPLC analysis
# Assay type: physicochemical
# reported_conditions: water; dose 1-10 mg/ml
measure: solubility (µg/mL)
// return numeric value only (unit: µg/mL, not printed)

CC(C)[C@]12O[C@H]1[C@@H]1O[C@]13[C@]1(O[C@H]1C[C@H]1C4=C(CC[C@@]13C)C(=O)OC4)[C@@H]2OC(=O)CCCOC(=O)CN1CCOCC1.Cl :: 7490
CC(C)[C@]12O[C@H]1[C@@H]1O[C@]13[C@]1(O[C@H]1C[C@H]1C4=C(CC[C@@]13C)C(=O)OC4)[C@@H]2OC(=O)COC(=O)CN1CCN(C)CC1.Cl :: 3820

Query: What solubility value was documented for this molecule, CC(C)[C@]12O[C@H]1[C@@H]1O[C@]13[C@]1(O[C@H]1C[C@H]1C4=C(CC[C@@]13C)C(=O)OC4)[C@@H]2OC(=O)COC(=O)CN1CCOCC1.Cl ?
Result: 6130
